Method Summary: in vitro
Condition Parameters: human, hela cells, % viability
Measured Parameter: viability at 28.5 h, 10 µM

Problem: Fill in: viability at 28.5 h, 10 µM of COc1ccc(C)cc1S(=O)(=O)Nc1cc(N2CCNC(C(F)(F)F)C2)c2occc2c1 (stereo not shown) [CBK073818C] is ___
Result: 104%

Problem: Could you tell me which viability at 28.5 h, 10 µM is on file for `O=C(NC(=S)Nc1ccc2oc(-c3cccc4ccccc34)nc2c1)c1ccco1` ?
Result: 95.5%

Problem: Which viability at 28.5 h, 10 µM value belongs to O=C(O)c1ccc(/C=N\NC(=O)C2COc3cc4ccccc4cc3O2)cc1 (stereo not shown) ?
Result: 90.4%

Problem: Which viability at 28.5 h, 10 µM value belongs to O=C(CC(C(=O)O)N1CCOCC1)Nc1ccccc1 (stereo not shown) ?
Result: 111%

Problem: Item `CCOc1ccc(Cl)cc1S(=O)(=O)NCCO` has what recorded viability at 28.5 h, 10 µM?
Result: 94%

Problem: Record request: viability at 28.5 h, 10 µM value, item CC(NS(=O)(=O)c1ccc(F)cc1)C(=O)Nc1ccc(C(N)=O)cc1 (stereo not shown)
Result: 104%

Problem: // viability at 28.5 h, 10 µM lookup, key: `Fc1ccc(Cn2nnc(-c3ccncc3)n2)c(Cl)c1`
Result: 102%

Problem: Requested field: viability at 28.5 h, 10 µM. Item: `CCOc1cc(/C=N/Nc2nncn2N)cc(I)c1O`
Result: 93.6%

Problem: Which value of viability at 28.5 h, 10 µM has been reported for `O=C(Nc1ccc2ncccc2c1)c1ccc(Cl)cc1Cl` in the records?
Result: 96.5%

Problem: // lookup viability at 28.5 h, 10 µM for O=C(c1cncnc1)N1CCC2(CCN(C(=O)c3ccoc3)C2)C1 (stereo not shown)
Result: 86.2%

Problem: Find the recorded viability at 28.5 h, 10 µM belonging to `Cc1ccc2[nH]c(=O)c(CNc3ccc4[nH]ncc4c3)cc2c1` and report it.
Result: 73%

Problem: So what's the measured viability at 28.5 h, 10 µM for this one? `CCN(CC)C(=O)Cn1nc2c(C)cc3cc(C)ccc3n2c1=O`
Result: 86.4%

Problem: Reported viability at 28.5 h, 10 µM for `CCCC(=O)c1ccc(S(=O)(=O)N2CCN(Cc3cccc(Br)c3)CC2)cc1` : what is it?
Result: 87.4%

Problem: Quick one: viability at 28.5 h, 10 µM for `Cc1ccc(Cn2ncc3c(N4CCCC4)ncnc32)cc1` ?
Result: 72.5%

Problem: Field request: viability at 28.5 h, 10 µM | item: `COc1cc(OC)cc(C(=O)OCc2ccc(F)cc2)c1`
Result: 95.6%

Problem: Endpoint output: viability at 28.5 h, 10 µM of `c1cncc(COc2nccnc2OC2CCN(Cc3cccnc3)CC2)c1` . Value?
Result: 108%

Problem: Suppose we examine the compound `CN(Cc1ccccc1N1CCOCC1)C(=O)Cc1cn2ccsc2n1` ; what viability at 28.5 h, 10 µM value has been reported?
Result: 109%

Problem: Looking for the measured viability at 28.5 h, 10 µM of CCOC(=O)c1c(NC(=O)CC2Nc3ccccc3NC2=O)sc(C)c1C (stereo not shown) , can you help?
Result: 94.2%

Problem: Looking for the measured viability at 28.5 h, 10 µM of `Cn1cc(CNCC2CCN(CCO)CC2)c(-c2cccnc2)n1` , can you help?
Result: 91.2%

Problem: Name the recorded viability at 28.5 h, 10 µM for `CN(C)c1cccc(-c2cnc3[nH]c(=O)n(CCc4ccncc4)c3n2)c1` .
Result: 91.1%

Problem: Give the measured viability at 28.5 h, 10 µM of `COCCOCC(=O)N1CCC2(C/C=C/C[C@H]3COCC[C@H]3NC(=O)CNC2=O)CC1` .
Result: 105%

Problem: Look up viability at 28.5 h, 10 µM for this compound: CC1=CC(c2ccc(Cl)cc2)n2nc(NC(=O)CCC(=O)O)nc2N1 (stereo not shown)
Result: 100%

Problem: // query viability at 28.5 h, 10 µM value for entry `CCOc1cc(OCC)cc(C(=O)N2CCC3(CC2)CC(=O)c2ccc(N)cc2O3)c1`
Result: 111%

Problem: Entry `Cc1ccc(-c2cc(C(=O)NCc3ccc(-c4ccc(C(N)=O)c(C)n4)cc3)no2)cc1` has what viability at 28.5 h, 10 µM?
Result: 116%

Problem: If you can, please state the reported viability at 28.5 h, 10 µM value of `C[C@H](Nc1cncc(-c2ccccc2CO)n1)c1ccccc1` .
Result: 116%

Problem: Consider the compound shown here: `O=C(O)CCCN1C(=O)/C(=C/c2ccc(O)c(O)c2)SC1=S` What is its recorded viability at 28.5 h, 10 µM?
Result: 84.9%

Problem: Fill blank: measured viability at 28.5 h, 10 µM of the compound `COc1ccccc1-c1nnc(Sc2nc([N+](=O)[O-])nn2C)o1` is ____.
Result: 85.1%

Problem: Form field: reported viability at 28.5 h, 10 µM of CCc1noc(C)c1C(=O)NC(C)c1cc2ccccc2o1 (stereo not shown)
Result: 87.1%

Problem: Item `CCN(CC)CCNc1nc2c(=O)[nH]c(=O)n(C)c2[nH]1` has what recorded viability at 28.5 h, 10 µM?
Result: 116%

Problem: Look up viability at 28.5 h, 10 µM for this compound: c1cnc2[nH]c(C3CC3)c(CN3CCN4CCCCC4C3)c2c1 (stereo not shown)
Result: 81.5%

Problem: Item under review: `COc1ccc(C2(C(=O)NCCc3ccc(O)cc3)CC2)cc1` . Reported viability at 28.5 h, 10 µM?
Result: 101%

Problem: Give its viability at 28.5 h, 10 µM value. Item: `CCCC(=O)Nc1ccc(OCc2nnc(C)o2)c(C(C)=O)c1`
Result: 92.9%

Problem: Returns the measured viability at 28.5 h, 10 µM for the input compound. Input: `CC(C)Nc1cc(OCc2ccc(-c3ccccc3)cc2)ncn1`
Result: 103%

Problem: What does the record list as viability at 28.5 h, 10 µM for `COc1ccc(NC(=O)c2ccccc2CCc2ccccc2)c([N+](=O)[O-])c1` ?
Result: 97%
